Target: proteasome in Molt-4 cells (human leukemia) (Homo sapiens, UniProt P20618+P28074)
Sequence (P28074 60-263): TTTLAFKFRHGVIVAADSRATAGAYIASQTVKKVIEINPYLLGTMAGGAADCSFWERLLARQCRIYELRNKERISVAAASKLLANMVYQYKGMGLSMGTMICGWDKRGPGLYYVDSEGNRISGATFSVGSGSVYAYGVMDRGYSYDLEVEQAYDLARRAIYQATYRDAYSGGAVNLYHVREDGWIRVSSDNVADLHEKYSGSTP
Sequence (P20618 29-241): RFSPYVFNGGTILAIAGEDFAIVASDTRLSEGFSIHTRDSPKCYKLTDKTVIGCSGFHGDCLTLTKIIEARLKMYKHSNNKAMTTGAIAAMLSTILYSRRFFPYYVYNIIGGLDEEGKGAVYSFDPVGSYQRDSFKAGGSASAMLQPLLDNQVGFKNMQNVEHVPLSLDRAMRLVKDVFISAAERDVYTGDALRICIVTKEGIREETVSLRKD
Assay type: cell-based
Settings: assay of Example E, inhibition of MOLT4; read-out: MOLT4 (EC50)
OUTCOME MEASURE: EC50

>  <SMILES CODE>
CC(C)C[C@H](NC(=O)[C@@H](NC(=O)CCCc1ccccc1)[C@@H](C)O)B1O[C@@H]2C[C@@H]3C[C@@H](C3(C)C)[C@]2(C)O1

>  <OUTCOME MEASURE>
EC50

>  <REPORTED VALUE>
< 200 nM

$$$$

Query block: For the compound CC(C)C[C@H](NC(=O)[C@@H](NS(=O)(=O)c1ccc2ccccc2c1)[C@@H](C)O)B(O)O , give its reported EC50.
Result block: < 200 nM

Query block: For the compound CCCCCCCCCC(=O)N[C@@H](CNC(=O)Nc1ccccc1)C(=O)N[C@@H](CC(C)C)B(O)O , give its reported EC50.
Result block: < 200 nM

Query block: For the compound CCCCCCCCCCCCC(=O)N[C@H](C(=O)N[C@@H](CC(C)C)B1O[C@@H]2C[C@@H]3C[C@@H](C3(C)C)[C@]2(C)O1)[C@@H](C)O , give its reported EC50.
Result block: < 200 nM

Query block: For the compound CCCCCCCOc1ccc(NC(=O)N[C@@H](CCCNC(=N)N[N+](=O)[O-])C(=O)N[C@@H](CC(C)C)B2O[C@@H]3C[C@@H]4C[C@@H](C4(C)C)[C@]3(C)O2)cc1 , give its reported EC50.
Result block: < 200 nM

Query block: For the compound CCCCN1CCC(CCCC(=O)N[C@@H](CCCNC(=N)N[N+](=O)[O-])C(=O)N[C@@H](CC(C)C)B2O[C@@H]3C[C@@H]4C[C@@H](C4(C)C)[C@]3(C)O2)CC1 , give its reported EC50.
Result block: > 10000 nM

Query block: For the compound CC(C)C[C@H](NC(=O)[C@H](CCCNC(=N)N[N+](=O)[O-])NC(=O)COc1ccc(C(C)C)cc1)B(O)O , give its reported EC50.
Result block: 200 to 2000 nM

Query block: For the compound COCCOCC(=O)NCC(=O)N[C@@H](CCCNC(=N)N[N+](=O)[O-])C(=O)N[C@@H](CC(C)C)B1O[C@@H]2C[C@@H]3C[C@@H](C3(C)C)[C@]2(C)O1 , give its reported EC50.
Result block: 2000 to 10000 nM

Query block: For the compound CCCCCCCCCC(=O)N[C@@H](CNC(=O)c1ccc(C)cc1)C(=O)N[C@@H](CC(C)C)B(O)O , give its reported EC50.
Result block: < 200 nM

Query block: For the compound COc1ccc2cc([C@H](C)C(=O)N[C@@H](CCCNC(=N)N[N+](=O)[O-])C(=O)N[C@@H](CC(C)C)B(O)O)ccc2c1 , give its reported EC50.
Result block: 2000 to 10000 nM

Query block: For the compound CCCCc1ccc(C(=O)N[C@@H](CNC(C)=O)C(=O)N[C@@H](CC(C)C)B2O[C@@H]3C[C@@H]4C[C@@H](C4(C)C)[C@]3(C)O2)cc1 , give its reported EC50.
Result block: < 200 nM

Query block: For the compound CCCCCCCCCCS(=O)(=O)N[C@@H](CCCNC(=N)N[N+](=O)[O-])C(=O)N[C@@H](CC(C)C)B1O[C@@H]2C[C@@H]3C[C@@H](C3(C)C)[C@]2(C)O1 , give its reported EC50.
Result block: < 200 nM

Query block: For the compound CC(C)C[C@H](NC(=O)[C@@H](NC(=O)c1ccc2ccccc2c1)[C@@H](C)O)B(O)O , give its reported EC50.
Result block: < 200 nM

Query block: For the compound CC(C)C[C@H](NC(=O)[C@H](CCCNC(=N)N[N+](=O)[O-])NC(=O)CCCCCCCCCO)B(O)O , give its reported EC50.
Result block: 2000 to 10000 nM

Query block: For the compound Cc1cccc(/C=C/C(=O)N[C@@H](CCCNC(=N)N[N+](=O)[O-])C(=O)N[C@@H](CC(C)C)B2O[C@@H]3C[C@@H]4C[C@@H](C4(C)C)[C@]3(C)O2)c1 , give its reported EC50.
Result block: < 200 nM

Query block: For the compound Cc1ccc(S(=O)(=O)CC(=O)N[C@@H](CCCNC(=N)N[N+](=O)[O-])C(=O)N[C@@H](CC(C)C)B2O[C@@H]3C[C@@H]4C[C@@H](C4(C)C)[C@]3(C)O2)cc1 , give its reported EC50.
Result block: 200 to 2000 nM

Query block: For the compound CCCCC[C@H]1CC[C@H](C(=O)N[C@@H](CCCNC(=N)N[N+](=O)[O-])C(=O)N[C@@H](CC(C)C)B(O)O)CC1 , give its reported EC50.
Result block: 200 to 2000 nM

Query block: For the compound CC(C)C[C@H](NC(=O)[C@H](CCCNC(=N)N[N+](=O)[O-])NC(=O)c1cccc(F)c1F)B(O)O , give its reported EC50.
Result block: > 10000 nM

Query block: For the compound CCCCc1ccc(S(=O)(=O)N[C@@H](CCCNC(=N)N[N+](=O)[O-])C(=O)N[C@@H](CC(C)C)B2O[C@@H]3C[C@@H]4C[C@@H](C4(C)C)[C@]3(C)O2)cc1 , give its reported EC50.
Result block: < 200 nM

Query block: For the compound CC(C)C[C@H](NC(=O)[C@H](CCCNC(=N)N[N+](=O)[O-])NC(=O)Cc1ccccc1)B1O[C@@H]2C[C@@H]3C[C@@H](C3(C)C)[C@]2(C)O1 , give its reported EC50.
Result block: 200 to 2000 nM

Query block: For the compound Cc1ccc(CCCC(=O)N[C@@H](CCCNC(=N)N[N+](=O)[O-])C(=O)N[C@@H](CC(C)C)B(O)O)cc1 , give its reported EC50.
Result block: 2000 to 10000 nM

----------
Target: 20S Human Erythrocyte Proteasome (HEP) (Homo sapiens, UniProt P20618+P28074)
Construct: 20S Human Erythrocyte Proteasome (HEP), purchased from Immatics Biotechnologies Inc
Test: Chymotrypsin-like activity of 20S Human Erythrocyte Proteasome (HEP), IC50 determination
Conditions: assay of Example C, inhibition of HEP
OUTCOME MEASURE: IC50

>  <SMILES CODE>
COc1ccc2cc([C@H](C)C(=O)N[C@@H](CCCNC(=N)N[N+](=O)[O-])C(=O)N[C@@H](CC(C)C)B3O[C@@H]4C[C@@H]5C[C@@H](C5(C)C)[C@]4(C)O3)ccc2c1

>  <IC50>
< 10 nM

$$$$
>  <SMILES CODE>
CC(C)C[C@H](NC(=O)[C@H](CCCNC(=N)N[N+](=O)[O-])NC(=O)CCCCCCCCCCCN1C(=O)c2ccccc2C1=O)B1O[C@@H]2C[C@@H]3C[C@@H](C3(C)C)[C@]2(C)O1

>  <IC50>
< 10 nM

$$$$
>  <SMILES CODE>
Cc1ccc(OCC(=O)N[C@H](C(=O)N[C@@H](CC(C)C)B2O[C@@H]3C[C@@H]4C[C@@H](C4(C)C)[C@]3(C)O2)[C@@H](C)O)cc1

>  <IC50>
< 10 nM

$$$$

Query block: For the compound CC(C)C[C@H](NC(=O)[C@H](CCCNC(=N)N[N+](=O)[O-])NC(=O)C1CC1)B(O)O , give its reported IC50.
Result block: < 100 nM

Query block: For the compound CC(C)C[C@H](NC(=O)[C@H](CCCNC(=N)N[N+](=O)[O-])NC(=O)CCc1cccs1)B1O[C@@H]2C[C@@H]3C[C@@H](C3(C)C)[C@]2(C)O1 , give its reported IC50.
Result block: < 10 nM

Query block: For the compound CC(C)C[C@H](NC(=O)[C@H](CCCNC(=N)N[N+](=O)[O-])NC(=O)c1cnccn1)B(O)O , give its reported IC50.
Result block: < 10 nM
